# SYSTEM: MuSA (Mus musculus, UniProt P07724)
# Sequence (P07724 25-608): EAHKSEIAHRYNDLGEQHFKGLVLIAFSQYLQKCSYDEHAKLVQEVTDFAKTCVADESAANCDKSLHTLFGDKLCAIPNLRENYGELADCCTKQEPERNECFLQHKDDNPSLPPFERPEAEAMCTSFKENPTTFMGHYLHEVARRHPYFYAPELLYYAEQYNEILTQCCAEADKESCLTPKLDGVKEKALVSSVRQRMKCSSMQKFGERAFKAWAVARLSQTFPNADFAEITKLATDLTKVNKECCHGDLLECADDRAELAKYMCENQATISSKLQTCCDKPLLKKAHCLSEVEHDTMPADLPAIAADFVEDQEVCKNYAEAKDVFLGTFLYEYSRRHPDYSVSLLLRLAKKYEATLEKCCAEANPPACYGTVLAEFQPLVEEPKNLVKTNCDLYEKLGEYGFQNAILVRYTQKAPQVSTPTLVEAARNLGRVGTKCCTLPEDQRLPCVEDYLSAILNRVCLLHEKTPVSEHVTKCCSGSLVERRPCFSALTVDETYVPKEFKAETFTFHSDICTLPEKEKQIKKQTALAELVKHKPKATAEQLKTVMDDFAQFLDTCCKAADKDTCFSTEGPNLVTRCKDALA
# RUN DESCRIPTION: Biacore kinetics of SABAs on immobilized serum albumin: MuSA
# Format: binding
EXPERIMENTAL READOUT: cross reaction with MuSA

Record request: cross reaction with MuSA value, item SABA5.1: His-tagged SABA5 sequence (protein, His6 tag) MGVSDVPRDLEVVAATPTSLLISWEDDSYYSRYYRITYGETGGNSPVQEFTVPSDLYTATISGLKPGVDYTITVYAVTYDVTDLIMHEPISINYRTEIDKPSQHHHHHH did not cross react

Could you do the same for SABA2.1: His-tagged SABA2 sequence (protein, His6 tag) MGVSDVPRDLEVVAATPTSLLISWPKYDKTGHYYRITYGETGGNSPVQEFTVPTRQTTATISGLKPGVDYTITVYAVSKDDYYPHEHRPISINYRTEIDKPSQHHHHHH , please? did not cross react

Record: SABA1.1: core SABA1 with N-terminal MGVSDVPRDLE, C-terminal EIDKPSQ and His6 tag; SEQ ID NO: 89 (protein) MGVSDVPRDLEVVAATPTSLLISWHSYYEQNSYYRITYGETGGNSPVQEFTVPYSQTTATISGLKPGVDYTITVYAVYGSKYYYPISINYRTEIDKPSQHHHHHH did not cross react
